Test: Selectivity index, ratio of CC50 for human MT4 cells to EC50 for HIV2 ROD
Type: toxicity, cell-based
Conditions: read-out: Ratio CC50/EC50
Listed next: entries and their corresponding selectivity ratio.

[
  {
    "STRUCTURE": "Cc1ccc(C(C)C)c(OCc2nnc(SCC(=O)Nc3ccc(S(N)(=O)=O)cc3)n2Cc2ccccc2)c1",
    "selectivity ratio": "< 1"
  }
]

Moving on to the next molecule.
Input line: What does the record list as selectivity ratio for "Cc1ccc(C(C)C)c(OCc2n[nH]c(=S)n2Cc2ccccc2)c1" ?
Output line: < 1

---

Listed next: entries and their corresponding CC50 at 120 h.
Assay: Cytotoxicity against human MT4 cells assessed as decrease in cell viability after 5 days by MTT assay
Format: toxicity, cell-based

The cases that follow already have their CC50 at 120 h on record.
[
  {
    "STRUCTURE": "S=c1[nH]nc(COc2ccc3ccccc3c2)n1Cc1ccccc1",
    "REPORTED_ENDPOINT": "CC50 at 120 h",
    "RESULT": "≥ 85.8 µg/mL"
  },
  {
    "STRUCTURE": "Nc1ccn([C@H]2CC[C@@H](CO)O2)c(=O)n1",
    "REPORTED_ENDPOINT": "CC50 at 120 h",
    "RESULT": "> 20 µg/mL"
  },
  {
    "STRUCTURE": "Cc1cn([C@H]2C[C@H](N=[N+]=[N-])[C@@H](CO)O2)c(=O)[nH]c1=O",
    "REPORTED_ENDPOINT": "CC50 at 120 h",
    "RESULT": "> 25 µg/mL"
  }
]

Input line: What does the record list as CC50 at 120 h for "O=c1[nH]cnc2c1ncn2[C@H]1CC[C@@H](CO)O1" ?
Output line: > 50 µg/mL

Input line: What does the record list as CC50 at 120 h for "Cc1ccnc2c1NC(=O)c1cccnc1N2C1CC1" ?
Output line: > 4 µg/mL

Input line: What does the record list as CC50 at 120 h for "O=C(COc1ccc2ccccc2c1)NNC(=S)NCc1ccccc1" ?
Output line: ≥ 61.4 µg/mL

Input line: What does the record list as CC50 at 120 h for "CC(=O)Nc1ccc(OCc2nnc(SCC(=O)Nc3ccc(S(N)(=O)=O)cc3)n2Cc2ccccc2)cc1" ?
Output line: > 125 µg/mL

---

Experiment: Selectivity index, ratio of CC50 for human MT4 cells to EC50 for HIV1 3B
Assay type: toxicity, cell-based
Settings: read-out: Ratio CC50/EC50
Listed next: entries and their corresponding selectivity ratio.

Input line: What does the record list as selectivity ratio for "CC(=O)Nc1ccc(OCc2nnc(SCC(=O)Nc3ccc(Br)cc3)n2Cc2ccccc2)cc1" ?
Output line: ≤ 1

Input line: What does the record list as selectivity ratio for "CCOC(=O)c1ccc(NC(=O)CSc2nnc(COc3cc(C)ccc3C(C)C)n2Cc2ccccc2)cc1" ?
Output line: < 1

Input line: What does the record list as selectivity ratio for "NS(=O)(=O)c1ccc(NC(=O)CSc2nnc(COc3ccc4ccccc4c3)n2Cc2ccccc2)cc1" ?
Output line: < 1

---

Listed next: entries and their corresponding selectivity ratio.
Assay: Selectivity index, ratio of CC50 for human MT4 cells to EC50 for HIV2 ROD
Format: toxicity, cell-based
Conditions: read-out: Ratio CC50/EC50

[
  {
    "STRUCTURE": "Cc1ccc(C(C)C)c(OCc2nnc(SCC(=O)Nc3ccc([N+](=O)[O-])cc3)n2Cc2ccccc2)c1",
    "selectivity ratio": "< 1"
  },
  {
    "STRUCTURE": "O=C(CSc1nnc(COc2ccc3ccccc3c2)n1Cc1ccccc1)Nc1ccc([N+](=O)[O-])cc1",
    "selectivity ratio": "≤ 1"
  },
  {
    "STRUCTURE": "O=C(COc1ccc2ccccc2c1)NNC(=S)NCc1ccccc1",
    "selectivity ratio": "≤ 1"
  },
  {
    "STRUCTURE": "CC(=O)Nc1ccc(OCc2nnc(SCC(=O)Nc3ccc(Br)cc3)n2Cc2ccccc2)cc1",
    "selectivity ratio": "≤ 1"
  },
  {
    "STRUCTURE": "Cc1ccc(C(C)C)c(OCc2nnc(SCC(=O)Nc3ccc(Cl)cc3)n2Cc2ccccc2)c1",
    "selectivity ratio": "< 1"
  },
  {
    "STRUCTURE": "O=C(CSc1nnc(COc2ccc3ccccc3c2)n1Cc1ccccc1)Nc1ccc(Br)cc1",
    "selectivity ratio": "< 1"
  },
  {
    "STRUCTURE": "Nc1ccn([C@H]2CC[C@@H](CO)O2)c(=O)n1",
    "selectivity ratio": "> 108"
  },
  {
    "STRUCTURE": "S=c1[nH]nc(COc2ccc3ccccc3c2)n1Cc1ccccc1",
    "selectivity ratio": "≤ 1"
  },
  {
    "STRUCTURE": "O=c1[nH]cnc2c1ncn2[C@H]1CC[C@@H](CO)O1",
    "selectivity ratio": "> 13"
  },
  {
    "STRUCTURE": "O=C(CSc1nnc(COc2ccc3ccccc3c2)n1Cc1ccccc1)Nc1ccc(Cl)cc1",
    "selectivity ratio": "≤ 1"
  }
]

Input line: What does the record list as selectivity ratio for "NS(=O)(=O)c1ccc(NC(=O)CSc2nnc(COc3ccc4ccccc4c3)n2Cc2ccccc2)cc1" ?
Output line: < 1

Input line: What does the record list as selectivity ratio for "Cc1cn([C@H]2C[C@H](N=[N+]=[N-])[C@@H](CO)O2)c(=O)[nH]c1=O" ?
Output line: > 26700
